# measurement.target: Human Notch3-Gal4-VP16 (human)
# method: cell-based or functional assay
readout.label: % inhibition, Delta 1 co-culture Notch3 reporter gene assay (%)
Your answer should be a plain number; it is taken to be in %.

Observe how each entry below is paired with its result.
12215 (antibody, human IgG1, kappa, V domains shown, also called MOR 12215) VH: QVQLVESGGGLVKPGGSLRLSCAASGFTFSTYVMHWVRQAPGKGLEWVGRIRSNTYGGITDYAAPVKGRFTISRDDSKNTLYLQMNSLKTEDTAVYYCARAEARYRDVWGQGTLVTVSS VL: DIQMTQSPSSLSASVGDRVTITCRASQSISSHLNWYQQKPGKAPKLLIYAASNLQSGVPSRFSGSGSGTDFTLTISSLQPEDFATYYCQQDYHTPFTFGQGTKVEIKR; -1
12229 (antibody, human IgG1, lambda, V domains shown) VH: QVQLVESGGGLVKPGGSLRLSCAASGFTFSSYTMNWVRQAPGKGLEWVGRIKTKTNGGTTDYAAPVKGRFTISRDDSKNTLYLQMNSLKTEDTAVYYCARERSRAGSIFDPWGQGTLVTVSS VL: DIVLTQPPSVSGAPGQRVTISCSGSSSNIGFNYVSWYQQLPGTAPKLLIYYNNQRPSGVPDRFSGSKSGTSASLAITGLQAEDEADYYCSTWTGTSESHVFGGGTKLTVLG; 85

For the next question, use this binder.
Task: Could you please provide reported % inhibition, Delta 1 co-culture Notch3 reporter gene assay for 12981 (antibody, human IgG1, kappa, V domains shown, also called MOR 12981) VH: QVQLVQSGAEVKKPGSSVKVSCKASGGTFRTYAMHWVRQAPGQGLEWMGGIIPIFGIANYAQKFQGRVTITADESTSTAYMELSSLRSEDTAVYYCARDDYSTYAFAYWGQGTLVTVSS VL: DIQMTQSPSSLSASVGDRVTITCRASQSIASYLAWYQQKPGKAPKLLIYDASNLQSGVPSRFSGSGSGTDFTLTISSLQPEDFATYYCQQAYKTPYTFGQGTKVEIKR ? Thanks!
Output: 16

The origin of these recorded values is patent US20180009889A1.
